Tested on: Candida albicans
procedure-summary: Potentiation of amphotericin B-induced antimicrobial effect against Candida albicans SC5314 assessed as ratio of MIC for compound plus amphotericin B to MIC for compound alone incubated for 48 hrs by XTT assay
Type: functional
Entries and their measured Ratio follow.

smiles-structure	target-system	Ratio
CC[C@H](C)C[C@H](C)C[C@H](C)[C@@H](O[C@@H]1O[C@H](COC(C)=O)[C@@H](O)[C@H](O)[C@@H]1O)[C@@H](C)/C=C(\C)[C@@H](O)[C@@H](C)/C=C(\C)[C@@H](O)[C@@H](C)/C=C(\C)C(=O)OC[C@@H](O)[C@@H](O)[C@H](O)[C@H](O)CO	Candida albicans	0.03
CC[C@H](C)C[C@H](C)C[C@H](C)[C@@H](O[C@@H]1O[C@H](CO)[C@@H](O)[C@H](O)[C@@H]1O)[C@@H](C)/C=C(\C)[C@@H](O)[C@@H](C)/C=C(\C)[C@@H](O)[C@@H](C)/C=C(\C)C(=O)OC[C@@H](O)[C@@H](O)[C@H](O)[C@H](O)CO	Candida albicans	<0.05

Read the next record carefully.
[ask] Specify measured Ratio for "CC[C@H](C)C[C@H](C)C[C@H](C)[C@@H](O[C@@H]1O[C@H](COC(C)=O)[C@@H](O)[C@H](O)[C@@H]1O)[C@@H](C)/C=C(\C)[C@@H](O)[C@@H](C)/C=C(\C)[C@@H](O)[C@@H](C)/C=C(\C)C(=O)OC[C@@H](O)[C@@H](O)[C@H](O)CO" .
[reply] 0.03

###

System: Candida albicans
procedure-summary: Potentiation of amphotericin B-induced antimicrobial effect against Candida albicans SC5314 assessed as ratio of MIC for compound plus amphotericin B to MIC for compound alone incubated for 48 hrs by XTT assay
Type: functional
measure: Ratio

Use the examples below as a reference point.
compound	target-system	reported-measurement
CC[C@H](C)C[C@H](C)C[C@H](C)[C@@H](O[C@@H]1O[C@H](COC(C)=O)[C@@H](O)[C@H](O)[C@@H]1O)[C@@H](C)/C=C(\C)[C@@H](O)[C@@H](C)/C=C(\C)[C@@H](O)[C@@H](C)/C=C(\C)[C@@H](O)[C@@H](C)C(=O)OC[C@@H](O)[C@@H](O)[C@H](O)[C@H](O)CO	Candida albicans	0.03
CC[C@H](C)C[C@H](C)C[C@H](C)[C@@H](O[C@@H]1O[C@H](CO)[C@@H](O)[C@H](O)[C@@H]1O)[C@@H](C)/C=C(\C)[C@@H](O)[C@@H](C)/C=C(\C)[C@@H](O)[C@@H](C)/C=C(\C)C(=O)OC[C@@H](O)[C@@H](O)[C@H](O)CO	Candida albicans	<0.01
CC[C@H](C)C[C@H](C)C[C@H](C)[C@@H](O[C@@H]1O[C@H](CO)[C@@H](O)[C@H](O)[C@@H]1O)[C@@H](C)/C=C(\C)[C@@H](O)[C@@H](C)/C=C(\C)[C@@H](O)[C@@H](C)/C=C(\C)[C@@H](O)[C@@H](C)C(=O)O	Candida albicans	<0.05

Please turn your attention to the following entry.
[ask] Using known records, supply Ratio for CCC(C)CC(C)CC(C)C(O[C@@H]1O[C@H](CO)[C@@H](O)[C@H](O)[C@@H]1O)C(C)/C=C(\C)C(O)C(C)/C=C(\C)C(O)C(C)C(=O)O (some centres undefined)
[reply] <0.05
